- experimental.system: T1, EsCas13d, nuclease-dead (Eubacterium siraeum, UniProt B0MS50, R295A;H300A;R849A;H854A)
- T1 sequence: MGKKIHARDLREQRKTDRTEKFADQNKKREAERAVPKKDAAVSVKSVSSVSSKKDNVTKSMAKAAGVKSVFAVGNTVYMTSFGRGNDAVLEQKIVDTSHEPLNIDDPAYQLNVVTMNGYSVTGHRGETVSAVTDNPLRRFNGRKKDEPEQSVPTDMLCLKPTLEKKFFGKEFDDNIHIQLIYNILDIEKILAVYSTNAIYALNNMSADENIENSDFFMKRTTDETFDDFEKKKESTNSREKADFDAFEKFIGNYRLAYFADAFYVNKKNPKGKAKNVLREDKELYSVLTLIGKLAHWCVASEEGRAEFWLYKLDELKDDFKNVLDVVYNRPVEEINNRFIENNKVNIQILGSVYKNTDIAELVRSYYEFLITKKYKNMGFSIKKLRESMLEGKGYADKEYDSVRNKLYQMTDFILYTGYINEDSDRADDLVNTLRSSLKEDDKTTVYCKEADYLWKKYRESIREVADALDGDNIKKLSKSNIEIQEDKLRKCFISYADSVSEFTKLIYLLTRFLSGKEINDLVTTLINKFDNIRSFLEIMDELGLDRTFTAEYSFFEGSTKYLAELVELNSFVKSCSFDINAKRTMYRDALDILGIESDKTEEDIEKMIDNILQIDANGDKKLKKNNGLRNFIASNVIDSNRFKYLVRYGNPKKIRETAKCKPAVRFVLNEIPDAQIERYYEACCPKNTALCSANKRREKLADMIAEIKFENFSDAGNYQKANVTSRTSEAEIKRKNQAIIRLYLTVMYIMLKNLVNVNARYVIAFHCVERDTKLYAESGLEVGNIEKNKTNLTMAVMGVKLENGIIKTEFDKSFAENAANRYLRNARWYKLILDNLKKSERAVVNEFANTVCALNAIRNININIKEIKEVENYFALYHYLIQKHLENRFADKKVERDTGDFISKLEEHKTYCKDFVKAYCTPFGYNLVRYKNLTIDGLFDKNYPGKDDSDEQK
- method.description: crRNA (strand 1, pre-loaded); Mg2+; 40 mM Tris-HCl pH 7.5, 150 mM NaCl, 6 mM MgCl2, 1 mM DTT, 0.1% Tween-20, 0.2 mg/ml BSA; 25 C; 10 min per concentration, then washed
- conditions: tags: His6-TwinStrep-SUMO cleaved; N-terminal SNAP kept (SNAP-Surface 488); label: 3' end held by stalled T7 RNA polymerase
log10(Kd) values by entry
result.type: log10(Kd) (log10 of the value in nM)

| binder | value |
| --- | --- |
| target 3 insC 3' of 22,insG 3' of 6 (mixed) RNA 1: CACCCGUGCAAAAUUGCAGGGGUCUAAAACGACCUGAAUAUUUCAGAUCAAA RNA 2: GGGAAUGGAUCCACAUCUACGAAUUCGUUUCUUGAUCUGAAAUAUUCGAGGUCUGCAGAUCGGAAGAGCACACGU | 1.34 |
| target 1 U11C,C22U (mixed) RNA 1: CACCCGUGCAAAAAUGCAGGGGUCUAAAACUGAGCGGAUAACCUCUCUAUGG RNA 2: GGGAAUGGAUCCACAUCUACGAAUUCGUAUCAUAGAGAGGCUAUCCGCUCACCGAGAUCGGAAGAGCACACGU | 1.33 |
| target 1 insA 3' of 10,insA 3' of 4 (mixed) RNA 1: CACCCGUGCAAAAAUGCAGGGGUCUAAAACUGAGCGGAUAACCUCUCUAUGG RNA 2: GGGAAUGGAUCCACAUCUACGAAUUCGUACCAUAGAGAGGUUAAUCCGCAUCACCGAGAUCGGAAGAGCACACGU | 0.81 |
| target 1 insC 3' of 13,insA 3' of 4 (mixed) RNA 1: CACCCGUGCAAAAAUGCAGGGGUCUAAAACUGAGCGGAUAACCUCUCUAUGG RNA 2: GGGAAUGGAUCCACAUCUACGAAUUCGUACCAUAGAGAGCGUUAUCCGCAUCACCGAGAUCGGAAGAGCACACGU | 0.69 |
| target 3 insU 3' of 3,insA 3' of 1 (mixed) RNA 1: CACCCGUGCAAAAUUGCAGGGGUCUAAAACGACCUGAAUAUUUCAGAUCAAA RNA 2: GGGAAUGGAUCCACAUCUACGAAUUCGUUUUUGAUCUGAAAUAUUCAGGUUCAUGCAGAUCGGAAGAGCACACGU | 1.88 |
| target 1 insA 3' of 22,insC 3' of 9 (mixed) RNA 1: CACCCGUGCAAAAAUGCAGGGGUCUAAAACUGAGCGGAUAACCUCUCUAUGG RNA 2: GGGAAUGGAUCCACAUCUACGAAUUCGUACACAUAGAGAGGUUACUCCGCUCACCGAGAUCGGAAGAGCACACGU | 1.16 |
| target 2 MT 5'PFS GAA 3'PFS AAC (mixed) RNA 1: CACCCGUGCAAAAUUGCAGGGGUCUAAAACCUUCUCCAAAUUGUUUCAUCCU RNA 2: GGGAAUGGAUCCACAUCUACGAAUUCGAAAGGAUGAAACAAUUUGGAGAAGAACAGAUCGGAAGAGCACACGU | 1.04 |
| target 1 insA 3' of 11,insG 3' of 11 (mixed) RNA 1: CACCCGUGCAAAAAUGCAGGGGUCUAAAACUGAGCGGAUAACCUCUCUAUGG RNA 2: GGGAAUGGAUCCACAUCUACGAAUUCGUACCAUAGAGAGGUAGUAUCCGCUCACCGAGAUCGGAAGAGCACACGU | 1.09 |

All figures here come from paper PMC10786891.
